Cited source for all entries: patent CN110840830A

Target: T1, CTLA-4 (antigen coated on ELISA plates and immunotubes) (UniProt P16410 36-161, limits assumed)
T1 construct: also called CTLA-4抗原; 细胞毒性T淋巴细胞相关抗原4
T1 sequence (looked up): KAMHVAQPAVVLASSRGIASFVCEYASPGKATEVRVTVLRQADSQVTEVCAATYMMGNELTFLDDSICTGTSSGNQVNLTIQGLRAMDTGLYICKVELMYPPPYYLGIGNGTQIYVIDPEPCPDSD
Assay: ELISA, full antibody on coated CTLA-4, anti-human IgG-HRP

binder	EC50
全抗N-1 (antibody, human IgG1, kappa, V domains shown, also called 抗CTLA-4全抗体N-1) VH: QVQLVESGGGVVQPGRSLRLSCAASGFTFSGYNGNWVRQAPGKGLEWVTFISYDGLNDVKADSVKGRFTISRDNSKNTLYLQMNSLRAEDTAIYYCARRYRWWGKAMDYWGQGTLVTVSS VL: DIVMTQSPLSLPVTPGEPASISCKSSQSVIDSKGYTYLGWYLQKPGQSPQLLIYLGTQKSSGVPDRFSGSGSGTDFTLKISRVEAEDVGVYYCLQRGHIPITFGQGTKLEIKR	0.163 mg/L
全抗N-5 (antibody, human IgG1, kappa, V domains shown, also called 抗CTLA-4全抗体N-5; N-5的全抗体) VH: QVQLVESGGGVVQPGRSLRLSCAASGFTFSGFFNRWVRQAPGKGLEWVTFISYDALKDFYADSVKGRFTISRDNSKNTLYLQMNSLRAEDTAIYYCARRYRWWGKAMDYWGPGTLVTVSS VL: DIVMTQSPLSLPVTPGEPASISCRSSQTVFDSHGQTYLQWYLQKPGQSPQLLIYGASRQVSGVPDRFSGSGSGTDFTLKISRVEAEDVGVYYCMQVWHLPITFGQGTKLEIKR	0.0689 mg/L
全抗N-7 (antibody, human IgG1, kappa, V domains shown, also called 抗CTLA-4全抗体N-7) VH: QVQLVESGGGVVQPGRSLRLSCAASGFTFSGIYCNWVRQAPGKGLEWVTFISYDSILNVIADSVKGRFTISRDNSKNTLYLQMNSLRAEDTAIYYCARRYRWWGKAMDYWGQGTLVTVSS VL: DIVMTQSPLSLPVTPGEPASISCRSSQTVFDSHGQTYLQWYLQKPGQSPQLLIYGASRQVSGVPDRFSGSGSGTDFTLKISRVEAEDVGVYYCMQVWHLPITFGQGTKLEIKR	0.0865 mg/L
